TGT: T1, soluble HLA-A2 MAGE-A4 (…) tetramer (human)
T1 construct: Bought tetramer reagent; also called MAGE-A4/HLA tetramer reagent; HLA-A02:01 MAGE-A4 tetramer
EXPERIMENT_SUMMARY: flow cytometry, HLA-A2 MAGE-A4 (…) tetramer staining of CHO cells transfected with the TCR

BINDER	SCALE_UNIT	% tetramer in Ag+ gate (MAGE-A4)
PN45494 (TCR, V domains shown, full-length chains on transfected CHO cells; also called TCR No. 50) V domain 1: GNSVTQIEGPVTLSEEAFLTINCTYTATGYPSLFWYVQYPGEGLQLLLKATKADDKGSNKGFEATYRKETTSFHLEKGSVQVSDSAVYFCALSDTRDDKTIFGKGTRLHILP V domain 2: DVKVTQSSRYLVKRTGEKVFLECVQDMDHENMFWYRQDPGLGLRLIYFSYDVKMKEKGDIPEGYSVSREKKERFSLILESASTNQTSMYLCASSLQGRYYGYTFGSGTRLTVV	%	3.7
PN45481 (TCR, V domains shown, full-length chains on transfected CHO cells; also called TCR No. 54) V domain 1: GNSVTQMEGPVTLSEEAFLTINCTYTATGYPSLFWYVQYPGEGLQLLLKATKADDKGSNKGFEATYRKETTSFHLEKGSVQVSDSAVYFCALSDTRDDKIIFGKGTRLHILP V domain 2: DVKVTQSSRYLVKRTGEKVFLECVQDMDHENMFWYRQDPGLGLRLIYFSYDVKMKEKGDIPEGYSVSREKKERFSLILESASTNQTSMYLCASSLQGRYYGYTFGSGTRLTVV	%	87.9
PN45546 (TCR, V domains shown, full-length chains on transfected CHO cells; also called TCR No. 53) V domain 1: AQTVTQSQPEMSVQEAETVTLSCTYDTSESDYYLFWYKQPPSRQMILVIRQEAYKQQNATENRFSVNFQKAAKSFSLKISDSQLGDAAMYFCAYRSGAGGTSYGKLTFGQGTILTVHP V domain 2: DAGVTQSPTHLIKTRGQQVTLRCSPISGHKSVSWYQQVLGQGPQFIFQYYEKEERGRGNFPDRFSARQFPNYSSELNVNALLLGDSALYLCASSIRDTYGYTFGSGTRLTVV	%	74.8
PN45593 (TCR, V domains shown, stained with anti-mouse TCR constant region H57-597; full-length chains on transfected CHO cells; also called TCR No. 40) V domain 1: AQKITQTQPGMFVQEKEAVTLDCTYDTSDPSYGLFWYKQPSSGEMIFLIYQGSYDQQNATEGRYSLNFQKARKSANLVISASQLGDSAMYFCAMREGPGNNARLMFGDGTQLVVKP V domain 2: NAGVTQTPKFRVLKTGQSMTLLCAQDMNHEYMYWYRQDPGMGLRLIHYSVGEGTTAKGEVPDGYNVSRLKKQNFLLGLESAAPSQTSVYFCASSYWDRGSPLHFGNGTRLTVT	%	56.5

Where do the numbers come from? From patent US20220324939A1.
